Biological target: YvcK (Bacillus subtilis)
Construct: gene mgfK; His6-tagged YvcK
Test: thermal shift assay (SYPRO Orange) with apparent KD
Format: binding
Parameter Measured: Kd (mM)
The answer is to be given in mM; state only the numeric part.

Input line: Record lookup: for YvcK (Bacillus subtilis), what Kd belongs to O=c1ccn([C@@H]2O[C@H](COP(=O)(O)OP(=O)(O)O)[C@@H](O)[C@H]2O)c(=O)[nH]1 ?
Output line: 6.21

----------
Target: YvcK (Bacillus subtilis, UniProt O06974)
Construct: gene mgfK; His6-tagged YvcK
Sequence (O06974 whole entry): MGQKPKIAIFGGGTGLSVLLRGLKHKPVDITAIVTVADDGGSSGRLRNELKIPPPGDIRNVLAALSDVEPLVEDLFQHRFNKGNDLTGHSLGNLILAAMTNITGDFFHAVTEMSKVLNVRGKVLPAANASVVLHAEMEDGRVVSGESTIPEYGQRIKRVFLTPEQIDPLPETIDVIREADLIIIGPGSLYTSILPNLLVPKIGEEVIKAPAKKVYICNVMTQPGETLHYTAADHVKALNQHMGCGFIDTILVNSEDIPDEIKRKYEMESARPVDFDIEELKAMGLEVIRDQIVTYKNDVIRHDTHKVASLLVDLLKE
Experiment: thermal shift assay (SYPRO Orange) with apparent KD; limited trypsin proteolysis
Type: binding
Parameter Measured: Kd (µM)
The answer is to be given in µM; state only the numeric part.

Input line: Need Kd of CC(=O)N[C@H]1[C@@H](OP(=O)(O)OP(=O)(O)OC[C@H]2O[C@@H](n3ccc(=O)[nH]c3=O)[C@H](O)[C@@H]2O)O[C@H](CO)[C@@H](O)[C@@H]1O , thanks.
Output line: 410
